- ASSAY TARGET: cGMP-dependent protein kinase 2 (Homo sapiens, UniProt Q13237)
- Sequence (Q13237 whole entry): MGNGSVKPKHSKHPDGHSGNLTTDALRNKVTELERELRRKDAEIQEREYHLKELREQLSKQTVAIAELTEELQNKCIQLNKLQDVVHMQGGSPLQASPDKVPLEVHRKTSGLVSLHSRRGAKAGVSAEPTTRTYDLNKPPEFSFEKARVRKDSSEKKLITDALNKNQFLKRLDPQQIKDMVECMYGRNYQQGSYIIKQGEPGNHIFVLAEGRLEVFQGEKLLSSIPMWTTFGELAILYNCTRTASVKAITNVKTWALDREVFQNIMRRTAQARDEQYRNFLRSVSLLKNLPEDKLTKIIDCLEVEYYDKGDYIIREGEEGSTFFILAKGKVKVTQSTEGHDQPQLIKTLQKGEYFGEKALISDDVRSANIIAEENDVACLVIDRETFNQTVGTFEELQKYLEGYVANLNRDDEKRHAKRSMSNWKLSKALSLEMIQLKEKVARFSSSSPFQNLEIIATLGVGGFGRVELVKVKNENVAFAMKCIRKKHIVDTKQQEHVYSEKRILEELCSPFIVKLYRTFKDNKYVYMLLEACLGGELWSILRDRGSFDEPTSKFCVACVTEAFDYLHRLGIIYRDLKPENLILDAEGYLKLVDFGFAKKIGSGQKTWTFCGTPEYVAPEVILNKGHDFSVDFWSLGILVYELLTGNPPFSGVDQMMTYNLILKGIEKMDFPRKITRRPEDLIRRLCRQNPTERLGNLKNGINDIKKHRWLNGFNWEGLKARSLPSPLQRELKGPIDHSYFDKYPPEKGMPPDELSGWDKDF
- EXPERIMENT NOTES: Microfluidic Mobility-Shift Assay
- CONDITION LABEL: pH 7
Record form. Attribute: EC50. Fill in for each entry.
Give bare numbers, in nM.

COMPOUND	ASSAY READOUT	REPORTED VALUE
Nc1nc(O)c2nc(Br)n([C@@H]3O[C@@H]4COP(=O)(O)O[C@H]4[C@H]3O)c2n1	EC50	58

Request: // lookup EC50 for O=c1c2ncn([C@@H]3O[C@@H]4COP(=O)(O)O[C@H]4[C@H]3O)c2[nH]c2nc(-c3ccccc3)cn12 [PET-cGMP]
Result: 225

Origin of values: BindingDB's records for doi:10.1021/acschembio.7b00369
